The measurements presented in this section are drawn from patent US9550792B2.

Target system: JAK2 (Homo sapiens)
Sequence (O60674 849-1124 limits assumed): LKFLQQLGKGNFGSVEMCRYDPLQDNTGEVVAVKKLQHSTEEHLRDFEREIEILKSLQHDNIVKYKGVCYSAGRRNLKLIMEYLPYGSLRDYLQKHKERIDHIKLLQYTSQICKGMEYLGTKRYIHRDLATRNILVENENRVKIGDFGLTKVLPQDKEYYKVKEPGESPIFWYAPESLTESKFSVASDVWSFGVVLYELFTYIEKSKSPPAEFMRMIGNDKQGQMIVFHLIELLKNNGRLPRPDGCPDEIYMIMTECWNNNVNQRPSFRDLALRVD
Experiment description: Kinase IC50, 33P labeled isotope method
Type: biochemical
Settings: 20 μM ATP; read-out: IC50* JAK2
pIC50: −log10 of the molar value.
Measured metric: pIC50

>>> recorded_number("Cc1cc2c(Nc3c[nH]nc3C(=O)Nc3ccc(CN4CCN(C)CC4)cc3)nccc2s1")
6.08
>>> recorded_number("Cc1cc2c(Nc3c[nH]nc3C(=O)Nc3ccc(CN4CCN(C)CC4)cc3)ncnc2s1")
6.15
>>> recorded_number("CN1CCN(Cc2ccc(NC(=O)c3n[nH]cc3Nc3ncnc4sccc34)cc2)CC1")
6.10
>>> recorded_number("CN1CCN(Cc2ccc(NC(=O)c3n[nH]cc3Nc3ncnc4occc34)cc2)CC1")
6.06
>>> recorded_number("Cc1cc2c(Nc3c[nH]nc3C(=O)Nc3ccc(CN4CCN(C)CC4)cc3)ncnc2[nH]1")
6.10

---

Experiment description: Pharmacokinetics after single oral dose in rats
Format: in vivo, Wistar rat
Settings: male, Wistar, rat, plasma, po, 30 mg/kg, mean of rats, oral 30 mg/kg, time 2 h; read-out: Plasma concentration, mean
Method: 300 μL blood collected from the rat was mixed with 30 μL methanol and 2 mL ethyl acetate. The samples were vortexed for 3 min and centrifuged at 4000 rpm for 15 min. The supernatant was introduced into another centrifugal tube. […] An amount of compound was taken accurately to prepare CMC-Na aqueous solution containing 3 mg/mL of drug. […] 300 μL plasma was subjected to analysis and the chromatogram and peak area were recorded. […]
Measured metric: concentration at 2 h (ng/mL)

>>> recorded_number("O=C(Nc1ccc(CN2CCOCC2)cc1)c1n[nH]cc1Nc1ncnc2sccc12")
53.2
>>> recorded_number("CN1CCN(Cc2ccc(NC(=O)c3n[nH]cc3Nc3ncnc4sccc34)cc2)CC1")
103

---

Experiment description: Pharmacokinetics after single oral dose in rats
Type: in vivo, Wistar rat
Settings: male, Wistar, rat, plasma, po, 30 mg/kg, rat No. 1-6, oral 30 mg/kg, time 0.5 h; read-out: Plasma concentration, individual rats
Measured metric: concentration at 0.5 h (ng/mL)

>>> recorded_number("CN1CCN(Cc2ccc(NC(=O)c3n[nH]cc3Nc3ncnc4sccc34)cc2)CC1")
68.8

---

# IC50 annotations
Test system: liver cancer cell line 7721
Experiment description: Anti-tumor activity in vitro, MTT method
Format: cell-based
Settings: MTT, 48 h; read-out: 7721 (IC50/μM)
Measured metric: IC50

>>> result("CN1CCN(Cc2ccc(NC(=O)c3n[nH]cc3Nc3ccnc4ccoc34)cc2)CC1 [Compound I-39]")
"> 200 µM"
>>> result("O=C(Nc1ccc(CN2CCOCC2)cc1)c1n[nH]cc1Nc1ncnc2occc12 [Compound I-22]")
"18.1 µM"
>>> result("Cc1c[nH]c2ncnc(Nc3c[nH]nc3C(=O)Nc3ccc(CN4CCOCC4)cc3)c12 [Compound I-16]")
"54.2 µM"
>>> result("O=C(Nc1c[nH]nc1-c1nc2ccc(CN3CCOCC3)cc2[nH]1)NC1CC1 [AT-9283, reference compound]")
"61.2 µM"

---

Target system: CDK7/cyclin H (Homo sapiens)
Sequence (P50613 12-295 limits assumed): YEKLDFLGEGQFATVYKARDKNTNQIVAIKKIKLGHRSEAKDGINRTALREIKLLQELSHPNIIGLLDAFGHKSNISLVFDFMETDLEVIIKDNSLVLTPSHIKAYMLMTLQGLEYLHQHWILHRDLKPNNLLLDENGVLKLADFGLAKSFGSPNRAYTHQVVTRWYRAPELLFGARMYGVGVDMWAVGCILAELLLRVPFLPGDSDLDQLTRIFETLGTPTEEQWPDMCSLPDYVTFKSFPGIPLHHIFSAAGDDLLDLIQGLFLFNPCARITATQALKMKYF
Sequence (P51946 whole entry partner): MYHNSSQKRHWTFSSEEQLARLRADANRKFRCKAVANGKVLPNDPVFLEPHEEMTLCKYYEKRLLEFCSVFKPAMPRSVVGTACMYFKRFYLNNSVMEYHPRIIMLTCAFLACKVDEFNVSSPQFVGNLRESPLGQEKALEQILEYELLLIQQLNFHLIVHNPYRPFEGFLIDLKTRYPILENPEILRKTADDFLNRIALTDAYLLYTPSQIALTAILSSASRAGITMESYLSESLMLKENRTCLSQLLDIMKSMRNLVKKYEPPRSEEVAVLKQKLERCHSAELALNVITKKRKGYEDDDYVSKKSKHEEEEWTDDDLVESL
Sequence (P51948 whole entry partner): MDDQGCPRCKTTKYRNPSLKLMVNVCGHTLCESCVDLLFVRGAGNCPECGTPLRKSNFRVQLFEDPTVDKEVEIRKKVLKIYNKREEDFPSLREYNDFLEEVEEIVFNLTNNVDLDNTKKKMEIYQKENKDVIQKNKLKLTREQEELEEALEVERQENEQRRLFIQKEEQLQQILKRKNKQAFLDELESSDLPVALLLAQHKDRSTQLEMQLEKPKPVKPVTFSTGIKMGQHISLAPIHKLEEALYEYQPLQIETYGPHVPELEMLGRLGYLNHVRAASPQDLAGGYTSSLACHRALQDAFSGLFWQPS
Experiment description: Kinase IC50, 33P labeled isotope method
Format: biochemical
Settings: 20 μM ATP; read-out: IC50* CDK7/cyclin H
pIC50: −log10 of the molar value.
Measured metric: pIC50

>>> recorded_number("Cc1cc2c(Nc3c[nH]nc3C(=O)Nc3ccc(CN4CCN(C)CC4)cc3)nccc2s1")
6.24
>>> recorded_number("CN1CCN(Cc2ccc(NC(=O)c3n[nH]cc3Nc3ncnc4sccc34)cc2)CC1")
6.28
>>> recorded_number("Cc1cc2c(Nc3c[nH]nc3C(=O)Nc3ccc(CN4CCN(C)CC4)cc3)ncnc2s1")
6.31
>>> recorded_number("Cc1cc2c(Nc3c[nH]nc3C(=O)Nc3ccc(CN4CCN(C)CC4)cc3)ncnc2[nH]1")
6.23
>>> recorded_number("CN1CCN(Cc2ccc(NC(=O)c3n[nH]cc3Nc3ncnc4occc34)cc2)CC1")
6.21
